endpoint: melting point

Report melting point for Cl.Cn1c2c(c3ccc(-n4ccc(-c5ccc(C(F)(F)F)nc5)cc4=O)nc31)C1CCCN1CC2 (centres unmarked) please.
290 to 300 °C

Repeat with Cl.O=c1cc(OCc2ccccc2)ccn1-c1ccc2c3c([nH]c2c1)CC1CCCCN1C3 (centres unmarked)
270 to 273 °C

Repeat with Cl.Cn1c2c(c3ccc(-n4ccc(OCc5ccc(F)cn5)cc4=O)cc31)CCN1CCCCC21 (centres unmarked)
200 °C (dec.)

Repeat with Cl.O=c1cc(-c2ccc(C(F)(F)F)nc2)ccn1-c1ccc2c3c([nH]c2c1)CC1CCCN1C3 (centres unmarked)
275 to 285 °C

Repeat with Cl.Cn1c2c(c3ccc(-n4ccc(OCc5ccc(Cl)cc5F)cc4=O)nc31)C1CCCN1CC2 (centres unmarked)
150 to 160 °C

----------
# assayed.target: human MCH-1 receptor (Homo sapiens (Human))
# procedure.details: Binding assay for human melanin-concentrating hormone (MCH1) receptor
# condition.notes: membranes from CHO-K1 cells expressing human MCH1 receptor; 1.4 nM [3H]-labeled radioligand, 60 min at 25° C., pH 7.4; Ki from Cheng Prusoff equation
Where a name gives a salt, the structure may show the parent alone.
Each entry below lists one item and its recorded pKi value.
Just the number, please; pKi means minus log10 of the concentration in mol/L.

| compound | endpoint | quantitative.readout |
| --- | --- | --- |
| Cn1c2c(c3ccc(-n4ccc(OCc5ccc(F)cn5)cc4=O)nc31)C1CCCN1CC2 (stereo not drawn) [Example 45, Hydrochloride] | pKi | 7.68 |
| Cl.Cn1c2c(c3ccc(-n4ccc(OCc5ccccc5)cc4=O)cc31)C1CCCN1CC2 (stereo not drawn) [Example 17, Hydrochloride] | pKi | 7.92 |

The record that follows has no pKi shown yet.
Any idea what pKi came out for Cl.O=c1cc(-c2ccc(C(F)(F)F)cc2)ccn1-c1ccc2c3c([nH]c2c1)CC1CCCN1C3 (stereo not drawn) [Example 39, Hydrochloride] on human MCH-1 receptor (Homo sapiens (Human))?
8.07

----------
Each entry below lists one item and its recorded Ki value.
# assayed.target: human MCH-1 receptor (Homo sapiens (Human), UniProt Q99705)
# Sequence (Q99705 whole entry): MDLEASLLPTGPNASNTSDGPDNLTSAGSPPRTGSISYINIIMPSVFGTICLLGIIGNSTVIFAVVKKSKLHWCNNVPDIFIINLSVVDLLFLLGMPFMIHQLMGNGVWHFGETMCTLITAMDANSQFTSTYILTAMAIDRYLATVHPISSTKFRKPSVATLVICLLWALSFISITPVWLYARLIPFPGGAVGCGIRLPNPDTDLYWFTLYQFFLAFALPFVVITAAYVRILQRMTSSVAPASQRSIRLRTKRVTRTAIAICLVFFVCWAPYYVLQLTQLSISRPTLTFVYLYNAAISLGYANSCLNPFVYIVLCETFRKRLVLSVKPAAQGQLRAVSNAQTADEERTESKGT
# procedure.details: Binding assay for human melanin-concentrating hormone (MCH1) receptor
# condition.notes: membranes from CHO-K1 cells expressing human MCH1 receptor; 1.4 nM [3H]-labeled radioligand, 60 min at 25° C., pH 7.4; Ki from Cheng Prusoff equation

// worked examples, Ki included
| compound | result |
| --- | --- |
| Cl.O=c1cc(OCc2ccccc2)ccn1-c1ccc2c3c([nH]c2c1)CC1CCCCN1C3 (centres unmarked) [Example 29, Hydrochloride] | 0.0085 µM |
| Cl.Cn1c2c(c3ccc(-n4ccc(OCc5ccc(F)cn5)cc4=O)nc31)CN1CCCC1C2 (centres unmarked) [Example 51, Hydrochloride] | 0.037 µM |
| Cl.Cn1c2c(c3ccc(-n4ccc(OCc5ccc(C(F)(F)F)nc5)cc4=O)cc31)C1CCCN1CC2 (centres unmarked) [Example 18, Hydrochloride] | 0.012 µM |

Report Ki for Cl.Cn1c2c(c3ccc(-n4ccc(OCc5ccc(F)cc5F)cc4=O)nc31)C1CCCN1CC2 (centres unmarked) [Example 46, Hydrochloride] please.
0.016 µM

Repeat with Cl.Cn1c2c(c3ccc(-n4ccc(OCc5ccccc5)cc4=O)nc31)C1CCCN1CC2 (centres unmarked) [Example 44, Hydrochloride]
0.012 µM

Recorded values, source patent US8618299B2.
